- procedure-text: NCI Yeast Anticancer Drug Screen. Data for the rad50 strain (AID 155);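 note: 0% = growth of vehicle-only cultures of the same strain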
- condition-notes: S. cerevisiae rad50 strain growth inhibition; at 50.0 µM (retest, dose inferred, filed as 5.0)
About 79,000 compounds went through this panel and 15% of them were active in at least one assay; those are over-represented in the sample as a whole. Activity calls are given as the source filed them. Cut-off read from the data, not from the text of the source: active = growth inhibition above about 70%; inactive = the rest.
Bench note: report the call from true (1) for active, false (0) for inactive

Before answering, review these 4 worked examples.
compound	category
NN(Cc1ccccc1)c1ccccc1	true (1)
O=c1c(Cl)c(Cl)c(=O)c2sc3cc(Cl)ccc3[nH]c1=2	false (0)
O=C(c1cccnc1)N(C1CCCCC1)C1CCCCC1	false (0)
CN(C)CCCN=c1c2ccccc2n(O)c2ccccc12	false (0)

Asked: Query: recorded result category for O=S1Nc2ccccc2S1 (configuration not stated) in this test
Given back: false (0)

Asked: Lab log entry: `COc1cc(C)cc(C(=O)OCc2ccccc2)c1C1=C(Cl)C(=O)C(Cl)=CC1=O` — outcome as called in the assay?
Given back: false (0)

Asked: Fill in: this test's call for CCC(Cl)COP(=O)(OC(c1ccc(Cl)c(Cl)c1)P(=O)(OCC(Cl)CC)OCC(Cl)CC)C(CC)CCl (configuration not stated) is ___
Given back: true (1)

Asked: Fill in: this test's call for CC(c1ccc(OCc2ccccc2)cc1)c1cc2c(cc1OCCO)OCO2 (configuration not stated) is ___
Given back: false (0)

Asked: Called result for `CCNc1nc(C(F)(F)F)nc2nc[nH]c12`
Given back: false (0)

Asked: So what was the verdict on `O=C(CSc1nnc(Cc2ccccc2)o1)Nc1cccc(Cl)c1` in this test?
Given back: true (1)

Asked: Answer briefly: the call reported for COc1cccc(C2c3cc4c(cc3OC(N3CCCC3)C2C)OCO4)c1 (configuration not stated) in this assay.
Given back: true (1)

Asked: # lookup: test call for `CC(=O)Nc1cc(Cl)c2c(c1)C(=O)c1ccccc1-2`
Given back: true (1)

Source: PubChem BioAssay (NCI)
